test system: A/H5N1/Gull_PA; test: microbe, parasite or virus in culture; assay type: cell-based, influenza virus; conditions: Influenza A virus, H5N1, MDCK, 48 h, read-out: A/H5N1/Gull_PA EC50
pEC50: −log10 of the molar value.
# pEC50 per entry
measured.endpoint: pEC50

[[record]]
smiles_representation = "Cc1cc(Br)cnc1N1CCN(C(=O)c2c(-c3ccccc3Cl)noc2C)CC1"
measured_endpoint = "pEC50"
result = "< 5.00"

[[record]]
smiles_representation = "Cc1c[nH]c(-c2ccccc2Cl)c1C(=O)N1CCN(c2ccc([N+](=O)[O-])cc2Cl)CC1"
measured_endpoint = "pEC50"
result = "> 7.00"


###

test system: A/H5N1/Duck_PA; assay: microbe, parasite or virus in culture; format: cell-based, influenza virus; details: read-out: A/H5N1/Duck_PA EC50
measured.endpoint: EC50

[[record]]
smiles_representation = "Cc1onc(-c2cccnc2Cl)c1C(=O)N1CCN(c2ccc([N+](=O)[O-])cc2Cl)CC1"
tested_on = "A/H5N1/Duck_PA"
measured_endpoint = "EC50"
result = "< 1000 nM"

[[record]]
smiles_representation = "COc1ccc2ccccc2c1-c1noc(C)c1C(=O)N1CCN(c2ccc([N+](=O)[O-])cc2Cl)CC1"
tested_on = "A/H5N1/Duck_PA"
measured_endpoint = "EC50"
result = "< 1000 nM"

[[record]]
smiles_representation = "Cc1[nH]nc(-c2ccccc2Cl)c1C(=O)N1CCN(c2ccc([N+](=O)[O-])cc2Cl)CC1"
tested_on = "A/H5N1/Duck_PA"
measured_endpoint = "EC50"
result = "< 10000 nM"

[[record]]
smiles_representation = "Cc1c[nH]c(-c2ccccc2Cl)c1C(=O)N1CCN(c2ncc(Cl)cc2Cl)CC1"
tested_on = "A/H5N1/Duck_PA"
measured_endpoint = "EC50"
result = "> 10000 nM"

[[record]]
smiles_representation = "COc1ccccc1-c1noc(C)c1C(=O)N1CCN(c2ccc([N+](=O)[O-])cc2Cl)CC1"
tested_on = "A/H5N1/Duck_PA"
measured_endpoint = "EC50"
result = "< 1000 nM"

[[record]]
smiles_representation = "COc1ccccc1-c1nnn(C)c1C(=O)N1CCN(c2ccc([N+](=O)[O-])cc2Cl)CC1"
tested_on = "A/H5N1/Duck_PA"
measured_endpoint = "EC50"
result = "< 1000 nM"


###

assay: Human Liver Microsomal Stability; conditions: human liver microsomes
# Human Liver Microsomal Stability (% Remaining after 10 minutes) per entry
measured.endpoint: Human Liver Microsomal Stability (% Remaining after 10 minutes)

[[record]]
compound = "COc1ccccc1-c1ncn(C)c1C(=O)N1CCN(c2ccc([N+](=O)[O-])cc2Cl)CC1"
result = "45%"

[[record]]
compound = "COc1ncccc1-c1noc(C)c1C(=O)N1CCN(c2ccc([N+](=O)[O-])cc2Cl)CC1"
result = "56%"

[[record]]
compound = "Cc1onc(-c2ccccc2)c1C(=O)N1CCN(c2ccc([N+](=O)[O-])cc2Cl)CC1 [reference compound]"
result = "40%"

[[record]]
compound = "Cc1onc(-c2ccc(F)cc2)c1C(=O)N1CCN(c2ccc([N+](=O)[O-])cc2Cl)CC1"
result = "66%"

[[record]]
compound = "COc1ccc(NS(C)(=O)=O)cc1-c1noc(C)c1C(=O)N1CCN(c2ncc(Cl)cc2Cl)CC1"
result = "70%"

[[record]]
compound = "Cc1nnn(-c2ccccc2Cl)c1C(=O)N1CCN(c2ccc([N+](=O)[O-])cc2Cl)CC1"
result = "47%"

[[record]]
compound = "Cc1onc(-c2ccccc2C(N)=O)c1C(=O)N1CCN(c2ccc([N+](=O)[O-])cc2Cl)CC1"
result = "80%"

[[record]]
compound = "COc1ccccc1-c1nnn(C)c1C(=O)N1CCN(c2ccc([N+](=O)[O-])cc2Cl)CC1"
result = "73%"

[[record]]
compound = "Cc1onc(-c2ccccc2Cl)c1C(=O)N1CCN(c2ccc([N+](=O)[O-])cc2Cl)CC1 [reference compound]"
result = "6%"

[[record]]
compound = "COc1cc(F)ccc1-c1noc(C)c1C(=O)N1CCN(c2ccc([N+](=O)[O-])cc2Cl)CC1"
result = "68%"

[[record]]
compound = "Cc1onc(-c2cccc(Cl)c2)c1C(=O)N1CCN(c2ccc([N+](=O)[O-])cc2Cl)CC1"
result = "94%"

[[record]]
compound = "Cc1onc(-c2ccccc2Cl)c1C(=O)N1CCN(c2ccc([N+](=O)[O-])cc2F)CC1"
result = "72%"

[[record]]
compound = "Cc1onc(-c2cccnc2Cl)c1C(=O)N1CCN(c2ccc([N+](=O)[O-])cc2Cl)CC1"
result = "50%"

[[record]]
compound = "COc1ccccc1-c1n[nH]c(C)c1C(=O)N1CCN(c2ncc([N+](=O)[O-])cc2Cl)CC1"
result = "52%"

[[record]]
compound = "COc1ccccc1-c1n[nH]c(C)c1C(=O)N1CCN(c2ccc([N+](=O)[O-])cc2Cl)CC1"
result = "72%"

[[record]]
compound = "COc1ccc(NS(C)(=O)=O)cc1-c1noc(C)c1C(=O)N1CCN(c2ccc([N+](=O)[O-])cc2Cl)CC1"
result = "75%"

[[record]]
compound = "COc1ccc(N)cc1-c1noc(C)c1C(=O)N1CCN(c2ncc(Cl)cc2Cl)CC1"
result = "62%"

[[record]]
compound = "Cc1[nH]nc(-c2ccccc2Cl)c1C(=O)N1CCN(c2ccc([N+](=O)[O-])cc2Cl)CC1"
result = "78%"

[[record]]
compound = "Cc1onc(-c2ccccc2O)c1C(=O)N1CCN(c2ncc(Cl)cc2Cl)CC1"
result = "80%"


###

# pEC50 per entry
test system: A/H5N1/Gull_PA; assay: microbe, parasite or virus in culture; format: cell-based, influenza virus; settings: read-out: A/H5N1/Gull_PA EC50
pEC50: −log10 of the molar value.
measured.endpoint: pEC50

[[record]]
smiles_representation = "COc1ccccc1-c1nnn(C)c1C(=O)N1CCN(c2ccc([N+](=O)[O-])cc2Cl)CC1"
result = "> 7.00"

[[record]]
smiles_representation = "COc1ccccc1-c1nnn(C)c1C(=O)N1CCN(c2ncc([N+](=O)[O-])cc2Cl)CC1"
result = "> 6.00"

[[record]]
smiles_representation = "COc1ccccc1-c1ncn(C)c1C(=O)N1CCN(c2ccc([N+](=O)[O-])cc2Cl)CC1"
result = "> 6.00"

[[record]]
smiles_representation = "Cc1cnn(-c2ccccc2Cl)c1C(=O)N1CCN(c2ccc([N+](=O)[O-])cc2Cl)CC1"
result = "> 6.00"

[[record]]
smiles_representation = "COc1ccccc1-c1n[nH]c(C)c1C(=O)N1CCN(c2ccc([N+](=O)[O-])cc2Cl)CC1"
result = "> 6.00"

[[record]]
smiles_representation = "COc1ccccc1-c1noc(C)c1C(=O)N1CCN(c2ccc([N+](=O)[O-])cc2Cl)CC1"
result = "> 7.00"

[[record]]
smiles_representation = "Cc1nnn(-c2ccccc2Cl)c1C(=O)N1CCN(c2ccc([N+](=O)[O-])cc2Cl)CC1"
result = "> 6.00"

[[record]]
smiles_representation = "Cc1c[nH]c(-c2ccccc2Cl)c1C(=O)N1CCN(c2ncc(Cl)cc2Cl)CC1"
result = "> 5.00"

[[record]]
smiles_representation = "COc1ccc2ccccc2c1-c1noc(C)c1C(=O)N1CCN(c2ccc([N+](=O)[O-])cc2Cl)CC1"
result = "> 7.00"

[[record]]
smiles_representation = "COc1ccc(-c2noc(C)c2C(=O)N2CCN(c3ccc([N+](=O)[O-])cc3Cl)CC2)c(Cl)c1"
result = "> 7.00"

[[record]]
smiles_representation = "COc1ccccc1-c1noc(C)c1C(=O)N1CCN(c2ncc(Cl)cc2Br)CC1"
result = "> 6.00"

[[record]]
smiles_representation = "Cc1onc(-c2cccnc2Cl)c1C(=O)N1CCN(c2ccc([N+](=O)[O-])cc2Cl)CC1"
result = "> 6.00"

[[record]]
smiles_representation = "COc1ccc(NC(C)=O)cc1-c1noc(C)c1C(=O)N1CCN(c2ccc([N+](=O)[O-])cc2Cl)CC1"
result = "> 6.00"

[[record]]
smiles_representation = "Cc1[nH]nc(-c2ccccc2Cl)c1C(=O)N1CCN(c2ccc([N+](=O)[O-])cc2Cl)CC1"
result = "> 6.00"


###

# Mouse Liver Microsomal Stability (% Remaining after 10 minutes) per entry
assay: Mouse Liver Microsomal Stability; details: mouse liver microsomes
measured.endpoint: Mouse Liver Microsomal Stability (% Remaining after 10 minutes) (%)

[[record]]
molecule = "Cc1onc(-c2ccccc2Cl)c1C(=O)N1CCN(c2ccc([N+](=O)[O-])cc2Cl)CC1 [reference compound]"
display_unit = "%"
number = 0

[[record]]
molecule = "Cc1onc(-c2ccccc2Cl)c1C(=O)N1CCN(c2ccc([N+](=O)[O-])cc2F)CC1"
display_unit = "%"
number = 86

[[record]]
molecule = "COc1ccc(NS(C)(=O)=O)cc1-c1noc(C)c1C(=O)N1CCN(c2ccc([N+](=O)[O-])cc2Cl)CC1"
display_unit = "%"
number = 49

[[record]]
molecule = "COc1ncccc1-c1noc(C)c1C(=O)N1CCN(c2ccc([N+](=O)[O-])cc2Cl)CC1"
display_unit = "%"
number = 33

[[record]]
molecule = "COc1ccc(N)cc1-c1noc(C)c1C(=O)N1CCN(c2ncc(Cl)cc2Cl)CC1"
display_unit = "%"
number = 36

[[record]]
molecule = "COc1ccc(NS(C)(=O)=O)cc1-c1noc(C)c1C(=O)N1CCN(c2ncc(Cl)cc2Cl)CC1"
display_unit = "%"
number = 8

[[record]]
molecule = "Cc1onc(-c2ccc(F)cc2)c1C(=O)N1CCN(c2ccc([N+](=O)[O-])cc2Cl)CC1"
display_unit = "%"
number = 86

[[record]]
molecule = "Cc1onc(-c2ccccc2O)c1C(=O)N1CCN(c2ncc(Cl)cc2Cl)CC1"
display_unit = "%"
number = 34


Origin of values: patent US20120245176A1
